# TARGET_OR_SYSTEM: IKZF2 (Homo sapiens, UniProt Q96SW2+Q9UKS7)
# Sequence (Q9UKS7 1-500 isoform Q9UKS7-2): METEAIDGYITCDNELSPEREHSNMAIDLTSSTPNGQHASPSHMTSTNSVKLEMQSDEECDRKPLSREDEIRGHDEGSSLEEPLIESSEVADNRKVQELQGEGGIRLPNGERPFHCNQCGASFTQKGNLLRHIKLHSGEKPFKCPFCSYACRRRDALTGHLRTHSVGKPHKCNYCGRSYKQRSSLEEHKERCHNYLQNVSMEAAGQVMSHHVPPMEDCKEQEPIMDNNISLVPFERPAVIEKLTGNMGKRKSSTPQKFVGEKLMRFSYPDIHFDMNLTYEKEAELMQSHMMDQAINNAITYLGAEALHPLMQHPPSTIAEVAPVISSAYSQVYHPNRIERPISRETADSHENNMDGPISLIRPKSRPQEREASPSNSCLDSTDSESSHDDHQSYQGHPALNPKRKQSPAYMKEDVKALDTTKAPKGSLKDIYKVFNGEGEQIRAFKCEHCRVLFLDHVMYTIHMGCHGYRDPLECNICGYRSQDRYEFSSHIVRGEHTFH
# Sequence (Q96SW2 whole entry): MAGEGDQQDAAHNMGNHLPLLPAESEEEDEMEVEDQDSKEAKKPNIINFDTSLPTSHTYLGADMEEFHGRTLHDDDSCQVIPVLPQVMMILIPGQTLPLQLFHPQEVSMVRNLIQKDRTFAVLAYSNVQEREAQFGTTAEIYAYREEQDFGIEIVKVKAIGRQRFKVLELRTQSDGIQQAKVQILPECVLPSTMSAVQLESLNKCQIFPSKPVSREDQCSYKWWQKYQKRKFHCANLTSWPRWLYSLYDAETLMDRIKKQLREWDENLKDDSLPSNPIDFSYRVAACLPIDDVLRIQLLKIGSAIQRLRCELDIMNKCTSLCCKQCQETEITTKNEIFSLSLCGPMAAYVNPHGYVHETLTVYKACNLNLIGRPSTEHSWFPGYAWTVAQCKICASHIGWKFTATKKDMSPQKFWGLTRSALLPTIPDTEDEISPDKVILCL
# Sequence (Q16531 whole entry partner): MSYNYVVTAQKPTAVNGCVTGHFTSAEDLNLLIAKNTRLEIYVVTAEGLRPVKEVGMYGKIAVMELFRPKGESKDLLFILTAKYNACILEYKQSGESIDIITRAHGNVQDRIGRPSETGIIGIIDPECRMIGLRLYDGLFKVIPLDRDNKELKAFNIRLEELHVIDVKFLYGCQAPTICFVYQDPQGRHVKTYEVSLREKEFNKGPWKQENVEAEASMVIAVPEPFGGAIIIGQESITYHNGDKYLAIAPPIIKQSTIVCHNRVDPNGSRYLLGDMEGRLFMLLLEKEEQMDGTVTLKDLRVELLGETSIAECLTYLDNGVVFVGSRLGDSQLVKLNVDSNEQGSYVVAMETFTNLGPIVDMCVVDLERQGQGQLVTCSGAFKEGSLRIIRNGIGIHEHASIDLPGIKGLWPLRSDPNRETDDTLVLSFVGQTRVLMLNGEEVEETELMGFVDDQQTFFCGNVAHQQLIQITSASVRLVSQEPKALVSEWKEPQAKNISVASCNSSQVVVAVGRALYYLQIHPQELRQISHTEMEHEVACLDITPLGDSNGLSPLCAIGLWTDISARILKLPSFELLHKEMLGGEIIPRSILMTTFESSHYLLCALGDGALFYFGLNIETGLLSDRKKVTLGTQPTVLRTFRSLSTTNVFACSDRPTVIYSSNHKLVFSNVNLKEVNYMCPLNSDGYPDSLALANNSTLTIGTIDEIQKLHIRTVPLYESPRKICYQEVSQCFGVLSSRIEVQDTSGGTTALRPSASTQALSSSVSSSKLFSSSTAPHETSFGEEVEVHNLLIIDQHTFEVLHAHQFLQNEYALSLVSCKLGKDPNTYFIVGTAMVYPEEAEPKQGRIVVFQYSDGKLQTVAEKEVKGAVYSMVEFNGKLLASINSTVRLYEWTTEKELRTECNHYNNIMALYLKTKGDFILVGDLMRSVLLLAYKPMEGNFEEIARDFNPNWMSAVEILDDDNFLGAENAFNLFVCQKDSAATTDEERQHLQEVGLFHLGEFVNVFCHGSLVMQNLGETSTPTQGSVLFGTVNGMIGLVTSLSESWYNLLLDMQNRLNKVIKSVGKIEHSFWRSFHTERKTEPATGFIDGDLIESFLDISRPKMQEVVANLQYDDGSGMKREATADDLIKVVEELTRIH
# TEST_PROTOCOL: HEK293 HiBiT in vitro degradation of IKZF2
# Format: cell-based
# Parameters: expressed in transfected cells
# SETTINGS: HEK293 HiBiT, 18-24 hr incubation, normalized to DMSO control; read-out: IKZF2 EC50
Reported log10(DC50) by item:
Heads up: the numbers are on a log10 scale; they represent DC50 in µM.

Would you please look over these solved cases?
O=C1CCC(N2Cc3c(ccc(C[C@H]4CCCC[C@@H]4NCC4CCOCC4)c3F)C2=O)C(=O)N1 (stereo partly drawn) [Example 115] :: -2.10
[2H]c1c([2H])c([2H])c(CN(Cc2c([2H])c([2H])c([2H])c([2H])c2[2H])[C@H]2CCCC[C@@H]2Cc2ccc3c(c2)CN(C2CCC(=O)NC2=O)C3=O)c([2H])c1[2H] (stereo partly drawn) [Example 26] :: -0.28
COc1ccc(CN[C@H]2CCCC[C@@H]2Cc2ccc3c(c2)CN(C2CCC(=O)NC2=O)C3=O)cc1 (stereo partly drawn) [Example 14] :: -1.57
O=C1CC[C@H](N2Cc3c(ccc(C[C@H]4OCCC[C@@H]4N[C@H]4CC[C@@H](C(F)F)CC4)c3F)C2=O)C(=O)N1 [Example 368] :: -2.10
O=C1CCC(N2Cc3cc(C[C@H]4CCCC[C@@H]4NC4CC4)ccc3C2=O)C(=O)N1 (stereo partly drawn) [Example 47] :: -2.22
C[C@@H]1CCCC[C@H]1N[C@H]1CCCC[C@@H]1Cc1ccc2c(c1)CN(C1CCC(=O)NC1=O)C2=O (relative stereo) [Example 303] :: -1.07
CN(C1CCC(F)(F)CC1)[C@H]1CCCC[C@@H]1Cc1ccc2c(c1F)CN(C1CCC(=O)NC1=O)C2=O (stereo partly drawn) [Example 124] :: -1.80
CC1(C)OCCC1N[C@H]1CCCC[C@@H]1Cc1ccc2c(c1)CN(C1CCC(=O)NC1=O)C2=O (single isomer, unassigned) [Example 274] :: -1.92

query: I'm curious: which log10(DC50) was measured for O=C1CCC(N2Cc3cc(C[C@H]4CCCC[C@@H]4NC4CCc5cn[nH]c5C4)ccc3C2=O)C(=O)N1 (stereo partly drawn) [Example 165] tested on IKZF2 (Homo sapiens, UniProt Q96SW2+Q9UKS7)?
result: -1.70

query: I'm curious: which log10(DC50) was measured for CC(N[C@H]1CCCC[C@@H]1Cc1ccc2c(c1F)CN(C1CCC(=O)NC1=O)C2=O)C1CCOCC1 (single isomer, unassigned) [Example 288] tested on IKZF2 (Homo sapiens, UniProt Q96SW2+Q9UKS7)?
result: -2.22

query: I'm curious: which log10(DC50) was measured for O=C1CCC(N2Cc3cc(C[C@H]4C[C@@H](F)CC[C@@H]4NC4CCC(F)(F)CC4)ccc3C2=O)C(=O)N1 (stereo partly drawn) [Example 341] tested on IKZF2 (Homo sapiens, UniProt Q96SW2+Q9UKS7)?
result: -1.68

query: I'm curious: which log10(DC50) was measured for O=C1CCC(N2Cc3cc(C[C@H]4CCCC[C@@H]4NC4CC5CC(C5)C4)ccc3C2=O)C(=O)N1 (stereo partly drawn) [Example 29] tested on IKZF2 (Homo sapiens, UniProt Q96SW2+Q9UKS7)?
result: -2.30

query: I'm curious: which log10(DC50) was measured for O=C1CCC(N2Cc3cc(C[C@H]4CCCC[C@@H]4NCC4CCOCC4)ccc3C2=O)C(=O)N1 (stereo partly drawn) [Example 71] tested on IKZF2 (Homo sapiens, UniProt Q96SW2+Q9UKS7)?
result: -1.43

query: I'm curious: which log10(DC50) was measured for O=C1CCC(N2Cc3cc(C[C@H]4CCCC[C@@H]4NC4CC5CCC5C4)ccc3C2=O)C(=O)N1 (stereo partly drawn) [Example 132] tested on IKZF2 (Homo sapiens, UniProt Q96SW2+Q9UKS7)?
result: -2.40
